target: Nampt (nicotinamide phosphoribosyltransferase) (UniProt P43490 P43490:1-491)
Sequence (P43490 whole entry, one chain of several): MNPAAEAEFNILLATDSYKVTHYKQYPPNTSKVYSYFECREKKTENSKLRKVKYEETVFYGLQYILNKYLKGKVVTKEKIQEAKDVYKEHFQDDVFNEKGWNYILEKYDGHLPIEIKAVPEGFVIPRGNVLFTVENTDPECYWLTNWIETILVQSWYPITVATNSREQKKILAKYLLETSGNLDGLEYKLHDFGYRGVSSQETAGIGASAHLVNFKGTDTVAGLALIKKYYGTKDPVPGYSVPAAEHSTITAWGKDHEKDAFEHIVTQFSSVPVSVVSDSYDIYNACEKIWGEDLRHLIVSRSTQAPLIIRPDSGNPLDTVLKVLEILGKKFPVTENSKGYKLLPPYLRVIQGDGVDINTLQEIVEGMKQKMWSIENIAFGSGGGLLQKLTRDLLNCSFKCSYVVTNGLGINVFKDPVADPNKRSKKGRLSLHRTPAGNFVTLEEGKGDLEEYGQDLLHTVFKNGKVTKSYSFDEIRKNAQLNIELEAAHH
protocolNotes: SPR; aptamer immobilized; same buffer pH 7.6
reportedConditions: tags: AdipoGen AG-40A-0031; chain copies: 2
reportedMetric: Kd (nM)
// units = nM; emit number, no label

q: Let me know recorded Kd for G35 (ssDNA) DNA: CGTACGGAATTCGCTAGCGGTGACGGACGTGGGGTGCACGAAGGGAGGGGATCCGAGCTCCACGTG , thanks.
a: 117

q: Give reported Kd value for G40 (ssDNA) DNA: CGTACGGAATTCGCTAGCCGGGGTGGGAACCAGTCTTGCGCGGGTGACGGATCCGAGCTCCACGTG
a: 114

The measurements presented in this section are drawn from patent US20140363808.
